Can you tell me 8X Qizalofop-P CIPV4 for the items I'm about to list?
System: F1 hybrid maize plants
measurementDescription: trait efficacy field trial, quizalofop-P pressure screening, F1 hybrid
Type: in vivo
studyConditions: CTP A; crop injury percentage; 0.64 lb ai/acre at VE-V2, V4, V8
One number for each entry.

{"molecule": "MON-HT2: engineered oxygenase protein, amino acid sequence SEQ ID NO:18 (protein) MHAALTPLTNKYRFIDVQPLTGVLGAEITGVDLREPLDDSTWNEILDAFHTYQVIYFPGQAITNEQHIAFSRRFGPVDPVPLLKSIEGYPEVQMIRREANESSRVIGDDWHSDSTFLDAPPAAVVMRAIEVPEYGGDTGFLSMYSAWETLSPTMQATIEGLNVVHSATKVFGSLYQATNWRFSNTSVKVMDVDAGDRETVHPLVVTHPVTGRRALYCNQVYCQKIQGMTDAESKSLLQFLYEHATKFDFTCRVRWKKDQVLVWDNLCTMHRAAPDYAGKFRYLTRTTVAGDKPSR", "quantitativeReadout": 2.5}

Consider the record given below.
Qu. Please look up its 8X Qizalofop-P CIPV4: MON-HT8: engineered oxygenase protein, amino acid sequence SEQ ID NO:37 (protein) MHAALTPLTNKYRFIDVQPLTGVLGAEITGVDLREPLDDSTWNEILDAFHTYQVIYFPGQAITNEQHIAFSRRFGPVDPVPILKSIEGYPEVQMIRREANESGRVIGDDWHTDSTFLDAPPAAVVMRAIEVPEYGGDTGFLSMYSAWETLSPTMQATIEGLNVVHSATKVFGSLYQATNWRFSNTSVKVMDVDAGDRETVHPLVVTHPVTGRRALYCNQVYCQKIQGMTDAESKSLLQFLYEHATKFDFTCRVRWKKDQVLVWDNLCTMHRSVPDYGNAFRYLTRTTVAGDKPSR
Ans. 37.5
